# protein stability index values compiled below
B1: TNXB (parent)
chain: LLQRELMVPGTRHSAVLRDLRSGT

- Variants of: B1
- ASSAY PROTOCOL: protein stability index of a GFP-peptide fusion (GPS, HEK-293T) (PSI 1-6); higher = more stable;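 further: lentivirally expressed fusions sorted by FACS into six bins by GFP to DsRed ratio, PSI derived from sequencing read proportions per bin multiplied by bin number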
- TEST CONTEXT: c terminus: a fixed tail appended

Per the record, LLQRELMVPGTRHEAVLRDLRSGT [S14E] has protein stability index of 2.54

protein stability index reported for this variant LLWRELMVPGTRHSAVLRDLRSGT [Q3W] : 2.15

response.value for LLQRELMVPGTRHSAVLRDLRRGT [S22R] (field: protein stability index) = 2.78

Per the record, LLARELMVPGTRHSAVLRDLRSGT [Q3A] has protein stability index of 2.27

Query LLQRELMVNGTRHSAVLRDLRSGT [P9N] yields protein stability index of 2.34

According to the records, this variant LLQRELMVPGTRHSAVLNDLRSGT [R18N] displays protein stability index of 2.71

Measured values drawn from the supplement of paper PMC10567573 for this set.
